Values were extracted from the supplement of paper PMC10567573.

B1: KRT34 (parent)
chain: YQSYFKTIEELQQKILCAKAENAR

# Variants of: B1
# Protocol notes: protein stability index of a GFP-peptide fusion (GPS, HEK-293T) (PSI 1-6); higher = more stable;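 note: lentivirally expressed fusions sorted by FACS into six bins by GFP to DsRed ratio, PSI derived from sequencing read proportions per bin multiplied by bin number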
# Condition details: c terminus: a fixed tail appended
Would you kindly list protein stability index for each of these variants?
When you answer, write just the number.

Need protein stability index of T7C , thanks. 1.64

// returns reported protein stability index for input K14I 1.52

Entry under review: K19F . Reported protein stability index? 1.74
